Experiment: MultiTox-Fluor Cytotoxicity Assay - LYMP1-001 - Dead Cells (AID 946);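 note: cells exposed to compound for 16 h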
Conditions: LYMP1-001 lymphoblastoid cells, dead-cell protease fluorescence; series mostly up to 92.2 µM
Records with an inconclusive call do not appear. Activity calls are given as the source filed them. Calls come from the whole dose curve; as a rule, active = well fitted cell-killing curve with a large enough effect; inconclusive = small, poorly fitted or top-dose-only effect, or effect the other way; inactive = flat fitted curve, though single readings scatter.
Classes to choose from: yes (1) (active), no (0) (inactive)

Hello, I am checking results. What call was entered for CC12CCC(CC1=O)C2(C)C (stereo not given) ?
no (0)

Hello, I am checking results. What call was entered for Nc1ccc(S(=O)(=O)O)cc1 ?
no (0)

Hello, I am checking results. What call was entered for CCCN(CCC)C(=O)SCC ?
no (0)

Hello, I am checking results. What call was entered for C1OCOCO1 ?
no (0)

Hello, I am checking results. What call was entered for C=CC(=C)CCC=C(C)C ?
no (0)

Hello, I am checking results. What call was entered for COc1cc(/C=C/c2ccccc2)oc(=O)c1 ?
no (0)

Hello, I am checking results. What call was entered for O=C(O)CC(C(=O)O)C(CC(=O)O)C(=O)O (stereo not given) ?
no (0)

Hello, I am checking results. What call was entered for CC1=C2[C@H](/C=C(\C)C(=O)O)CC[C@@H](C)[C@H]2CC1 ?
no (0)

Hello, I am checking results. What call was entered for Nc1ccc(Cl)cc1Cl ?
no (0)

Hello, I am checking results. What call was entered for Cc1ccccc1C ?
no (0)

Hello, I am checking results. What call was entered for CC(C)=CCCC(C)CCO (stereo not given) ?
no (0)

Hello, I am checking results. What call was entered for OCCNCCO ?
no (0)

Hello, I am checking results. What call was entered for CN(C)C=O ?
no (0)

Hello, I am checking results. What call was entered for S=C1NC=NC2N=CNC12 (stereo not given) ?
no (0)

Hello, I am checking results. What call was entered for CC1(C)CC(N=C=O)CC(C)(CN=C=O)C1 (stereo not given) ?
no (0)

Hello, I am checking results. What call was entered for Cc1cccc([N+](=O)[O-])c1C ?
no (0)

Hello, I am checking results. What call was entered for CCCCOCCO ?
no (0)

Hello, I am checking results. What call was entered for C=CC(=O)OCCOCCOCCOCCOC(=O)C=C ?
yes (1)

Hello, I am checking results. What call was entered for CCCCCCCCCCCCCCC1CO1 (stereo not given) ?
no (0)

Hello, I am checking results. What call was entered for c1ccc2c(c1)[nH]c1ccccc12 ?
no (0)

Hello, I am checking results. What call was entered for CCC(C)c1ccccc1O (stereo not given) ?
no (0)

Hello, I am checking results. What call was entered for c1ccc2scnc2c1 ?
no (0)

Hello, I am checking results. What call was entered for CCCCC(CC)CN (stereo not given) ?
no (0)

Hello, I am checking results. What call was entered for Cc1ccc([N+](=O)[O-])cc1N ?
no (0)

Hello, I am checking results. What call was entered for CC(=O)OC/C=C(\C)CCC=C(C)C ?
no (0)

Hello, I am checking results. What call was entered for CCO[Si](CCCN)(OCC)OCC ?
no (0)

Hello, I am checking results. What call was entered for COC(=O)c1ccc(C)cc1 ?
no (0)

Hello, I am checking results. What call was entered for O=C(/C=C/c1ccc(O)c(O)c1)O[C@@H](C(=O)O)[C@@H](OC(=O)/C=C/c1ccc(O)c(O)c1)C(=O)O ?
no (0)

Hello, I am checking results. What call was entered for CCCCCCCCCCCCCC(=O)O ?
no (0)

Hello, I am checking results. What call was entered for Clc1cc(Cl)c(Cl)c(Cl)c1Cl ?
no (0)
